Numbers sourced from patent US20260242362A1.

target: kappa opioid receptor (Homo sapiens); test: GTPγS binding assay (G-protein activation); type: biochemical
Sequence (P41145 whole entry): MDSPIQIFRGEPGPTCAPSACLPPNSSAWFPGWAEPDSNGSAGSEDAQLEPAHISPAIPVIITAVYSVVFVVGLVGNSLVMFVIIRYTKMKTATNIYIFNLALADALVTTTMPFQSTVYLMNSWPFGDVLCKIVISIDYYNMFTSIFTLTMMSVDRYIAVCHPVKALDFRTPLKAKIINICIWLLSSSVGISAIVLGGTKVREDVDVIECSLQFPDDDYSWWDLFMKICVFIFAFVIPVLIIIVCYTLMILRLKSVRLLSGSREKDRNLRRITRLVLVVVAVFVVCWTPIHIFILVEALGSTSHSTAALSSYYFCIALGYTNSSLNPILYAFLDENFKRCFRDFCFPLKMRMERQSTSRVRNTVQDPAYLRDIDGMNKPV
value_kind: KOR potency / activity in words (SAR commentary)

>>> assay_value("Cc1ccc(/C=C/c2nnc(-c3ccccn3)n2Cc2ccco2)cc1C(F)(F)F (single isomer, unassigned)")
"loss in potency"
>>> assay_value("OC(Cc1ccccc1)c1nnc(-c2ccccn2)n1Cc1ccco1 (stereo not drawn)")
"loss in potency"
>>> assay_value("FC(F)(Cc1ccccc1)c1nnc(-c2ccccn2)n1Cc1ccco1")
"completely inactive"
>>> assay_value("O=C(Cc1ccccc1)c1nnc(-c2ccccn2)n1Cc1ccco1")
"loss in potency"
>>> assay_value("Cc1ccc(/C=C/c2nnc(-c3ccccn3)n2Cc2cccs2)cc1C(F)(F)F")
"completely inactive"
